Each item that follows carries a reported OD 405 nm.
Target system: T1, human recombinant HER3 Extracellular Domain (HER3 ECD) (human, UniProt P21860 20-643)
T1 construct: 68 kDa; also called human-Her3-ECD
Experimental details: ELISA, antigen coated, hybridoma supernatant
Numbers only; they are read as OD.

Study these solved cases before continuing.
# Binder, Measured metric, Numeric result
records = [
    ("anti-HER3 antibody M-43-01 (antibody, V domains shown, mouse hybridoma clone) VH: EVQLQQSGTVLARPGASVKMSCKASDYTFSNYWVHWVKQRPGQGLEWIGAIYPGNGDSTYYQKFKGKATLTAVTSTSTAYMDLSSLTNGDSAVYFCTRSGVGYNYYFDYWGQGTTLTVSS VL: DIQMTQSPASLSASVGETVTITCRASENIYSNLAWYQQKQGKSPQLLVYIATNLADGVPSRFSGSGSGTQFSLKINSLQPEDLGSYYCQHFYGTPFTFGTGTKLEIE", "OD 405 nm", 1.44),
    ("anti-HER3 antibody M-46-01 (antibody, V domains shown, mouse hybridoma clone) VH: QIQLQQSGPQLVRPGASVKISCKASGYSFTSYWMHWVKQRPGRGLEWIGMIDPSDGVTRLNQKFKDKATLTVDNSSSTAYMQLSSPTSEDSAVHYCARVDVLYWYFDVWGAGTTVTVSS VL: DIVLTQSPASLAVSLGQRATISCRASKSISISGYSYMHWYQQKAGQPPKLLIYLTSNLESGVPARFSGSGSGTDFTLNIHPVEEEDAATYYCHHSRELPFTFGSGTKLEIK", "OD 405 nm", 1.35),
]

Lab note: next binder to report on.
Sample anti-HER3 antibody M-08-11 (antibody, V domains shown, mouse monoclonal antibody from hybridoma, tested as hybridoma supernatant or as antibody; also called M-011) VH: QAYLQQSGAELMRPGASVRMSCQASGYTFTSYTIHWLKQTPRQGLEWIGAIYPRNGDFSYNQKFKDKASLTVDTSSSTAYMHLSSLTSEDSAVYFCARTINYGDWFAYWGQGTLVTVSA VL: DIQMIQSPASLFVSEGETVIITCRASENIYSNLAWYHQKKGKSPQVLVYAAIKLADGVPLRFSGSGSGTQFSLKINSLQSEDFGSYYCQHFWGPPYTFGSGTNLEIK ; OD 405 nm observed: 3.15

Source: patent US20180094062A1
